Values compiled from paper PMC8070447.

Examples of compounds with documented pIC50 follow.
- EXPERIMENTAL SYSTEM: recombinant DENV2 NS2BNS3 protease (Dengue virus type 2)
- Sequence (P29990 1398-1437): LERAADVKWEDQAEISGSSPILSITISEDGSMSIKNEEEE
- Sequence (P29990 1476-1653): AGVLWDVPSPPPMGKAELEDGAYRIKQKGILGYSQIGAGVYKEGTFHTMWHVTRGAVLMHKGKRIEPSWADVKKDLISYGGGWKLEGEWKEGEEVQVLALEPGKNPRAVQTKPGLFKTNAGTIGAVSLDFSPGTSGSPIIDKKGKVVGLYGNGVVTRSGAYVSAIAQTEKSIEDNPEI
- PROTOCOL TEXT: DENV2 NS2BNS3 protease inhibition assay (fluorogenic Bz-Nle-Lys-Arg-Arg-AMC substrate)
Scale for pIC50: -log10 of concentration given in mol/L; no unit attached.

Example entries begin here.
SMILES ENTRY | EXPERIMENTAL SYSTEM | RECORDED RESULT
O=c1c2ccccc2sn1-c1ccc(Br)cc1 | recombinant DENV2 NS2BNS3 protease (Dengue virus type 2) | 5.08
COc1ccc(-n2sc3ccccc3c2=O)cc1 | recombinant DENV2 NS2BNS3 protease (Dengue virus type 2) | 4.58
O=c1c2ccccc2sn1-c1ccccc1Cl | recombinant DENV2 NS2BNS3 protease (Dengue virus type 2) | 5.70
O=c1c2ccccc2sn1-c1ccccc1O | recombinant DENV2 NS2BNS3 protease (Dengue virus type 2) | 5.18
Cc1cc([N+](=O)[O-])ccc1-n1sc2ccccc2c1=O | recombinant DENV2 NS2BNS3 protease (Dengue virus type 2) | 5.59

Report pIC50 for `O=c1c2ccccc2sn1-c1ccccc1[N+](=O)[O-]` please.
4.38

Report pIC50 for `O=c1c2ccccc2sn1-c1c(Cl)cccc1Cl` please.
5.28
